Tested on: Human immunodeficiency virus 1
TEST DESCRIPTION: Antiviral activity against HIV1 NL4-3 harboring L10I/G48V/I54V/L90M amino acid substitution in protease encoding region infected in human MT4 cells assessed as inhibition of p24 Gag protein production selected at 5 uM of saquinavir by ELISA
Format: functional, organism-based
CONDITION SUMMARY: Human immunodeficiency virus 1, NL4-3, MT4
# EC50 per entry
RECORDED METRIC: EC50

chemical_string=CC(C)CN(C[C@@H](O)[C@H](Cc1ccccc1)NC(=O)O[C@H]1CCOC1)S(=O)(=O)c1ccc(N)cc1 result="210 nM"
chemical_string=CC(C)(C)NC(=O)[C@@H]1CN(Cc2cccnc2)CCN1C[C@@H](O)C[C@@H](Cc1ccccc1)C(=O)N[C@H]1c2ccccc2C[C@H]1O.O result="> 1000 nM"
chemical_string=Cc1cccc(C)c1OCC(=O)N[C@@H](Cc1ccccc1)[C@@H](O)C[C@H](Cc1ccccc1)NC(=O)[C@H](C(C)C)N1CCCNC1=O result="700 nM"
chemical_string=CC(C)(C)NC(=O)[C@@H]1C[C@@H]2CCCC[C@@H]2CN1C[C@@H](O)[C@H](Cc1ccccc1)NC(=O)[C@H](CC(N)=O)NC(=O)c1ccc2ccccc2n1 result="> 1000 nM"
chemical_string=CC(C)c1nc(CN(C)C(=O)N[C@H](C(=O)N[C@@H](Cc2ccccc2)C[C@H](O)[C@H](Cc2ccccc2)NC(=O)OCc2cncs2)C(C)C)cs1 result="> 1000 nM"
chemical_string=COc1ccc(S(=O)(=O)N(C[C@@H]2CCC(=O)N2)C[C@@H](O)[C@H](Cc2ccccc2)NC(=O)O[C@@H]2C[C@@H]3CCO[C@@H]3C2)cc1 result="140 nM"
chemical_string=COC(=O)N[C@H](C(=O)N[C@@H](Cc1ccccc1)[C@@H](O)CN(Cc1ccc(-c2ccccn2)cc1)NC(=O)[C@@H](NC(=O)OC)C(C)(C)C)C(C)(C)C result="320 nM"
chemical_string=Cc1c(O)cccc1C(=O)N[C@@H](CSc1ccccc1)[C@H](O)CN1C[C@H]2CCCC[C@H]2C[C@H]1C(=O)NC(C)(C)C result="320 nM"

----------
Test system: Human immunodeficiency virus 1
TEST DESCRIPTION: Ratio of EC50 for HIV1 NL4-3 harboring L10F/L24I/M46I/L63P/A71V/G73S/V82T amino acid substitution in protease encoding region to EC50 for HIV1 NL4-3
Assay type: functional
RECORDED METRIC: Ratio EC50

compound="COC(=O)N[C@H](C(=O)N[C@@H](Cc1ccccc1)[C@@H](O)CN(Cc1ccc(-c2ccccn2)cc1)NC(=O)[C@@H](NC(=O)OC)C(C)(C)C)C(C)(C)C [ATAZANAVIR]" recorded_metric="Ratio EC50" quantitative_readout=15
compound=CC(C)CN(C[C@@H](O)[C@H](Cc1ccccc1)NC(=O)O[C@H]1CCOC1)S(=O)(=O)c1ccc(N)cc1 recorded_metric="Ratio EC50" quantitative_readout=9
compound=CC(C)(C)NC(=O)[C@@H]1C[C@@H]2CCCC[C@@H]2CN1C[C@@H](O)[C@H](Cc1ccccc1)NC(=O)[C@H](CC(N)=O)NC(=O)c1ccc2ccccc2n1 recorded_metric="Ratio EC50" quantitative_readout=3

----------
Tested on: Human immunodeficiency virus 1
TEST DESCRIPTION: Antiviral activity against HIV1 NL4-3 harboring L90M mutation in protease encoding region infected in human […] cells assessed as inhibition of p24 Gag protein production by ELISA
Type: functional, organism-based
CONDITION SUMMARY: Human immunodeficiency virus 1, NL4-3
pEC50: −log10 of the molar value.
RECORDED METRIC: pEC50

chemical_string=COc1ccc(S(=O)(=O)N(C[C@@H]2CCC(=O)N2)C[C@@H](O)[C@H](Cc2ccccc2)NC(=O)O[C@@H]2C[C@@H]3CCO[C@@H]3C2)cc1 quantitative_readout=7.49
